pIC50: −log10 of the molar value.
Measured pIC50 on UniProt:O00574 follows.

# Compound, Test system, Measurement kind, Obs value
data = [
    ("CCCc1cc(NC(=O)[C@@H](O)C(C)C)ccc1S(=O)(=O)Nc1cccc(OC(F)(F)F)c1", "UniProt:O00574", "pIC50", "≥ 6.70"),
    ("CCOc1cc(NC(=O)[C@@H](O)c2ccccc2)ccc1S(=O)(=O)Nc1ccc(F)c(OC(F)(F)F)c1", "UniProt:O00574", "pIC50", "≥ 6.70"),
    ("CCOc1cc(NC(=O)[C@@H](O)c2ccccc2Cl)ccc1S(=O)(=O)Nc1cccc(OC(F)(F)F)c1", "UniProt:O00574", "pIC50", "≥ 6.70"),
    ("COc1cc(NC(=O)[C@@H](CO)C(C)C)ccc1S(=O)(=O)Nc1cccc(C(F)(F)F)c1", "UniProt:O00574", "pIC50", "≥ 6.70"),
    ("CCOc1cc(NC(=O)C(O)c2c(F)cccc2F)ccc1S(=O)(=O)Nc1cccc(OC(F)(F)F)c1 (stereo not drawn)", "UniProt:O00574", "pIC50", "≥ 6.70"),
    ("CCc1cc(NC(=O)[C@@H](O)C(C)C)ccc1S(=O)(=O)Nc1cccc(OC(F)(F)F)c1", "UniProt:O00574", "pIC50", "≥ 6.70"),
]

For each listed entry, give its pIC50.
1. CCOc1cc(NC(=O)[C@@H](O)C(C)C)ccc1S(=O)(=O)Nc1ccc(F)c(C(F)(F)F)c1
2. CCOc1cc(NC(C)=O)ccc1S(=O)(=O)Nc1cccc(C(F)(F)F)c1
3. CCOc1cc(NC(=O)[C@@H](CO)c2ccccc2)ccc1S(=O)(=O)Nc1cccc(Cl)c1Cl
4. CCOc1cc(NC(=O)[C@H]2CCC=C[C@H]2O)ccc1S(=O)(=O)Nc1cccc(OC(F)(F)F)c1
5. CCOc1cc(NC(=O)[C@H]2CCCC[C@H]2C(=O)O)ccc1S(=O)(=O)Nc1ccc(C)c(OC(F)(F)F)c1 (racemic)
6. Cn1nccc1C(=O)Nc1ccc(S(=O)(=O)Nc2cccc(C(F)(F)F)c2)c(OC(F)(F)F)c1
7. Cn1nccc1C(=O)Nc1ccc(S(=O)(=O)Nc2cccc(C(F)(F)F)c2)c(C#N)c1
8. CCOc1cc(NC(=O)C(CO)C(C)C)ccc1S(=O)(=O)Nc1ccc(Cl)c(OC)c1 (stereo not drawn)

["≥ 6.70", "4.70 to 5.70", "5.70 to 6.12", "6.12 to 6.70", "5.70 to 6.12", "5.70 to 6.12", "4.70 to 5.70", "≥ 6.70"]

Returns the measured pIC50 for the input compound. Input: CCOc1cc(NC(=O)[C@H]2CC=CC[C@@H]2CO)ccc1S(=O)(=O)Nc1cccc(OC(F)(F)F)c1
≥ 6.70

* * *

target: human CXCR6 (Homo sapiens, UniProt O00574)
Sequence (O00574 whole entry): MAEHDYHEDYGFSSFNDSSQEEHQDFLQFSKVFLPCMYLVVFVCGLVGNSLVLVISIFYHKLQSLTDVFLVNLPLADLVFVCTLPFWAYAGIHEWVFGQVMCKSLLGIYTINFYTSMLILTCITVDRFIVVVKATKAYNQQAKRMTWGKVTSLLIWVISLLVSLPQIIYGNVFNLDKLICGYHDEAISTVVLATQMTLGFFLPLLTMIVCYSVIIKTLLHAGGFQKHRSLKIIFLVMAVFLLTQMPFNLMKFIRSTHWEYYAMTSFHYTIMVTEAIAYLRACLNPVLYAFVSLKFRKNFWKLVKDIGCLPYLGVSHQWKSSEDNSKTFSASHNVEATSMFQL
Measurement kind: IC50

These recorded examples may help you get a feel for the data.
# Compound, IC50
measured = [
    ("CCOc1cc(NC(=O)[C@@H](O)c2ccccc2)ccc1S(=O)(=O)Nc1cccc(OC(F)(F)F)c1", "≤ 200 nM"),
    ("CCOc1cc(NC(=O)C(O)C(F)(F)F)ccc1S(=O)(=O)Nc1cccc(OC(F)(F)F)c1 (centres unmarked)", "≤ 200 nM"),
    ("CCOc1cc(NC(=O)[C@@H](CO)C(C)C)ccc1S(=O)(=O)Nc1cccc(Cl)c1C", "200 to 750 nM"),
    ("Cc1cc(NC(=O)c2ccoc2C)ccc1S(=O)(=O)Nc1cccc(C(F)(F)F)c1", "200 to 750 nM"),
    ("CCOc1cc(NC(=O)C(O)C2C=CCC2)ccc1S(=O)(=O)Nc1cccc(OC(F)(F)F)c1 (centres unmarked)", "≤ 200 nM"),
]

Would you be so kind as to report IC50 for each listed record?
1. CCOc1cc(NC(=O)CC2(O)CCCCC2)ccc1S(=O)(=O)Nc1cccc(OC(F)(F)F)c1
2. Cc1cc(NC(=O)C2CCCOC2)ccc1S(=O)(=O)Nc1cccc(C(F)(F)F)c1 (centres unmarked)
3. CC(C)Oc1cc(NC(=O)c2ccnn2C)ccc1S(=O)(=O)Nc1cccc(C(F)(F)F)c1

["200 to 750 nM", "750 to 2000 nM", "2000 to 20000 nM"]

These entries and their values trace back to patent US20230339851A1.
